All figures here come from patent US7262212B2.

Each entry below lists one item and its recorded melting point value.

Recorded results for 5 molecules are shown here.
C[C@]1(COc2ccc(N3CCSCC3)cc2)Cn2cc([N+](=O)[O-])nc2O1	227.5 to 229 °C
O=C(OCc1ccc(C(F)(F)F)cc1)N1CCN(C(=O)N2CCC3(CC2)Cn2cc([N+](=O)[O-])nc2O3)CC1	221 to 223 °C
COc1ccc(NC(=S)N2CCN(CC3(C)Cn4cc([N+](=O)[O-])nc4O3)CC2)cc1 (stereo not drawn)	189 to 191 °C (dec.)
O=[N+]([O-])c1cn2c(n1)O[C@@H](CN1CCN(Cc3ccc(C(F)(F)F)cc3)CC1)C2	149 to 150 °C
CN(CCN1CCN(C(=O)OC(C)(C)C)CC1)C[C@@]1(C)Cn2cc([N+](=O)[O-])nc2O1	149.5 to 151.8 °C

Please look at this molecule and report its melting point: CCOC(=O)N1CCN(c2ccc(OC[C@@]3(C)Cn4cc([N+](=O)[O-])nc4O3)cc2)CC1
210.5 to 212 °C

// Input: CN(C)c1ccc(C(=O)N2CCN(CC3(C)Cn4cc([N+](=O)[O-])nc4O3)CC2)cc1 (stereo not drawn) . Output its melting point only.
204 to 207 °C

// fetch melting point given entry CN(CC1Cn2cc([N+](=O)[O-])nc2O1)C(=O)OCc1ccc(F)cc1 (stereo not drawn)
124.5 to 128.1 °C

Complete the entry with melting point for O=C(NCC1Cn2cc([N+](=O)[O-])nc2O1)OCc1ccc(F)cc1 (stereo not drawn)
164.6 to 165.1 °C

----------
readout.type: melting point

O=C(OCc1ccc(C(F)(F)F)cc1)N1CCC2(CC1)Cn1cc([N+](=O)[O-])nc1O2	189 to 190 °C
C[C@]1(CN2CCN(C(=O)OCC=Cc3c(F)cc(F)cc3F)CC2)Cn2cc([N+](=O)[O-])nc2O1.O=C(O)/C=C\C(=O)O	158 to 159 °C
C[C@]1(CN2CCN(c3ccc(Cl)cc3)CC2)Cn2cc([N+](=O)[O-])nc2O1	218 to 219.6 °C
C[C@]1(COc2ccc(N3CCN(Cc4ccc(C(F)(F)F)cc4)CC3)cc2)Cn2cc([N+](=O)[O-])nc2O1	205.5 to 207 °C
O=C(CN1CCN(C(=O)OCc2ccc(OC(F)(F)F)cc2)CC1)N1CCC2(CC1)Cn1cc([N+](=O)[O-])nc1O2	137 to 139 °C
C[C@]1(COc2ccc(-n3cncn3)cc2)Cn2cc([N+](=O)[O-])nc2O1	236 to 238.7 °C

Supply measured melting point of O=[N+]([O-])c1cn2c(n1)O[C@@H](COc1ccc(N3CCC(Oc4ccc(OC(F)(F)F)cc4)CC3)cc1)C2 in your reply.
157 to 160 °C

Report melting point for C[C@]1(CN2CCN(C(=O)Nc3ccc(Cl)cc3)CC2)Cn2cc([N+](=O)[O-])nc2O1
156 to 159 °C (dec.)

----------
readout.type: melting point

Answered cases to consult:
CN(CCN(C)c1ccc(C(F)(F)F)cc1)C[C@@]1(C)Cn2cc([N+](=O)[O-])nc2O1	135.5 to 137.5 °C
CC1(CN2CCN(C(=O)CCc3ccccc3)CC2)Cn2cc([N+](=O)[O-])nc2O1 (stereo not drawn)	166.8 to 169.1 °C

State its melting point for this compound: O=C(Nc1ccc(C(F)(F)F)cc1)N1CCC2(CC1)Cn1cc([N+](=O)[O-])nc1O2
215 to 217 °C

Please indicate melting point recorded for COc1ccc(NC(=O)N2CCN(CC3(C)Cn4cc([N+](=O)[O-])nc4O3)CC2)cc1 (stereo not drawn)
167 to 168 °C

Identify the reported melting point for the following entry. CC1(CN2CCN(C(=O)Cc3ccc(Cl)c(Cl)c3)CC2)Cn2cc([N+](=O)[O-])nc2O1 (stereo not drawn)
189 to 191 °C
